# TEST SYSTEM: acid phosphatase sample derived from Escherichia blattae (Shimwellia blattae, UniProt I2BB71)
# Construct: homo-oligomer; signal peptide removed
# ASSAY NOTES: Phosphorylation reaction of various nucleosides by acid phosphatase sample
# Format: biochemical, Escherichia blattae JCM 1650
# RUN CONDITIONS: sodium pyrophosphate 15 g/dl, nucleoside 3 g/dl, enzyme 50 units/dl, pH 4.0, 35° C., 3 hours
Item-by-item account of Produced amount of nucleoside-5'-ester
Express the reported value numerically, then name its unit.

Worked set:
Nc1nc2c(ncn2[C@@H]2O[C@H](CO)[C@@H](O)[C@H]2O)c(=O)[nH]1 ... 1.05 g/dL
OC[C@H]1O[C@@H](n2cnc3c(O)ncnc32)[C@H](O)[C@@H]1O ... 1.56 g/dL

IN: Please give the measured Produced amount of nucleoside-5'-ester for this compound: Nc1ccn([C@@H]2O[C@H](CO)[C@@H](O)[C@H]2O)c(=O)n1
OUT: 1.22 g/dL

IN: Any idea what Produced amount of nucleoside-5'-ester was measured for O=c1ccn([C@@H]2O[C@H](CO)[C@@H](O)[C@H]2O)c(=O)[nH]1 ?
OUT: 1.87 g/dL
